# tested.system: UniProt:Q96RI1
# assay.explanation: In Vitro FXR Assay (TK): TK-ECRE-luc reporter in transfected CV-1 cells
# condition.label: 18 hrs incubation, luminescence
pEC50: −log10 of the molar value.
quantity: pEC50

Some entries whose results are on file:
{"smiles.entry": "COc1ccc(C23CCC(CN(c4cc(-c5cnn(C(C)C)c5)ccn4)C(=O)[C@H]4CC[C@H](OC(=O)N5CCC5)CC4)(CC2)CC3)cc1C", "pEC50": "≥ 7.30"}
{"smiles.entry": "COc1ccc([C@H]2CC[C@H](CN(c3cc(-c4cnc(N(C)C)nc4)ccn3)C(=O)[C@H]3CC[C@H](OC(=O)N4CC(O)C4)CC3)CC2)cc1C", "pEC50": "≥ 7.30"}
{"smiles.entry": "COc1c(C)cc(C23CCC(CN(c4cc(-c5cnn(C(C)C)c5)ccn4)C(=O)[C@H]4CC[C@H](OC(=O)N5CC(O)C5)CC4)(CC2)CC3)cc1F", "pEC50": "≥ 7.30"}
{"smiles.entry": "COc1ccc(C23CCC(CN(c4cc(-c5cnn(C(C)C)c5)ccn4)C(=O)[C@H]4CC[C@H](NC(=O)OC(C)C)CC4)(CC2)CC3)cc1C", "pEC50": "≥ 7.30"}
{"smiles.entry": "COc1ccc([C@H]2CC[C@H](CN(c3cccc(-c4cnn(C(C)C)c4)c3)C(=O)[C@H]3CC[C@H](NC(=O)CCCO)CC3)CC2)cc1C", "pEC50": "6.00 to 7.30"}

// lookup pEC50 | system=UniProt:Q96RI1 | key= "COc1ncc([C@H]2CC[C@H](CN(c3cc(-c4cnn(C(C)C)c4)ccn3)C(=O)[C@H]3CC[C@H](OC(=O)N4CCN(C)CC4)CC3)CC2)cc1C"
6.00 to 7.30

Can you handle "CC(C)c1ccc(C23CCC(CN(c4cc(-c5cnn(C(C)C)c5)ccn4)C(=O)[C@H]4CC[C@H](OC(=O)N5CC(O)C5)CC4)(CC2)CC3)cc1" next?
≥ 7.30

Could you do the same for "COc1ccc(C23CCC(CN(c4nccc(-c5cnn(C6(C)CCC6)c5)n4)C(=O)[C@H]4CC[C@H](OC(=O)N5CC(O)C5)CC4)(CC2)CC3)cc1C" , please?
≥ 7.30

Now consider "COc1ccc(C23CCC(CN(c4cc(-c5cnn(C6CCC6)c5)ncn4)C(=O)[C@H]4CC[C@H](OC(=O)N5CC(O)C5)CC4)(CC2)CC3)cc1C" .
≥ 7.30

Now consider "COc1ccc([C@H]2CC[C@H](CN(c3cc(-c4cnn(C(F)(F)F)c4)ccn3)C(=O)[C@H]3CC[C@H](OC(=O)NCC(C)(C)O)CC3)CC2)cc1C" .
6.00 to 7.30

Okay, and "COc1ccc([C@H]2CC[C@H](CN(c3cc(-c4cnn(C(C)C)c4)ccn3)C(=O)[C@H]3CC[C@H](OC(=O)NC[C@H](F)CO)CC3)CC2)cc1C" ?
≥ 7.30

---

List of EC50 values.
# tested.system: hFXR (Homo sapiens)
# assay.explanation: In Vitro FXR Assay (TK): TK-ECRE-luc reporter in transfected CV-1 cells
# condition.label: 18 hrs incubation, luminescence

Solved entries (count: 5):
{"compound": "CCC1CN(C(=O)O[C@H]2CC[C@H](C(=O)N(CC34CCC(c5ccc(OC)c(C)c5)(CC3)CC4)c3cc(-c4cnn(C(C)C)c4)ccn3)CC2)C1", "EC50": "≤ 50 nM"}
{"compound": "COc1ccc(C23CCC(CN(c4cc(-n5nnc(C(C)C)n5)ccn4)C(=O)[C@H]4CC[C@H](OC(=O)N5CC(O)C5)CC4)(CC2)CC3)cc1C", "EC50": "1000 to 10000 nM"}
{"compound": "COc1ccc(C23CCC(CN(c4cc(-n5cnc(C6CC6)n5)ccn4)C(=O)[C@H]4CC[C@H](OC(=O)N5CC(O)C5)CC4)(CC2)CC3)cc1C", "EC50": "≤ 50 nM"}
{"compound": "COc1ccc(C23CCC(CN(c4nccc(-c5cnn(C(C)C)c5)n4)C(=O)[C@H]4CC[C@H](OC(=O)N5CC(O)C5)CC4)(CC2)CC3)cc1C", "EC50": "≤ 50 nM"}
{"compound": "COc1ccc(C23CCC(CN(c4cc(C5CCN(C(C)C)C5)ccn4)C(=O)[C@H]4CC[C@H](OC(=O)N5CC(O)C5)CC4)(CC2)CC3)cc1C (stereo partly shown)", "EC50": "50 to 1000 nM"}

EC50 of "COc1ccc([C@H]2CC[C@H](CN(c3cc(-c4coc(C(C)C)n4)ccn3)C(=O)[C@H]3CC[C@H](OC(=O)N4CC(O)C4)CC3)CC2)cc1C" on hFXR (Homo sapiens)?
≤ 50 nM

Try this compound too: "COc1ccc(C23CCC(CN(c4cc(-c5cc(C(C)C)on5)ccn4)C(=O)[C@H]4CC[C@H](OC(=O)N5CC(O)C5)CC4)(CC2)CC3)cc1C"
≤ 50 nM

Request: "COc1ccc([C@H]2CC[C@H](CN(c3cc(-c4cnn(C(C)C)c4)ccn3)C(=O)[C@H]3CC[C@H](OC(=O)NCCC(C)(C)O)CC3)CC2)cc1C"
≤ 50 nM

Request: "COc1ccc([C@H]2CC[C@H](CN(c3cc(-c4cnn(C(C)C)c4)ccn3)C(=O)[C@H]3CC[C@H](OC(=O)N4CC(OCCO)C4)CC3)CC2)cc1C"
≤ 50 nM

Could you do the same for "CC(C)c1ccc(C23CCC(CN(c4cncc(-c5cnn(C(C)C)c5)n4)C(=O)[C@H]4CC[C@H](OC(=O)N5CC(O)C5)CC4)(CC2)CC3)cc1" , please?
≤ 50 nM

// next record "CCOC(=O)NC[C@H]1CC[C@H](C(=O)N(C[C@H]2CC[C@H](c3ccc(OC)c(C)c3)CC2)c2cccc(-c3cnn(C(C)C)c3)c2)CC1"
50 to 1000 nM

---

# tested.system: hFXR (Homo sapiens, UniProt Q96RI1)
# Sequence (Q96RI1 1-486): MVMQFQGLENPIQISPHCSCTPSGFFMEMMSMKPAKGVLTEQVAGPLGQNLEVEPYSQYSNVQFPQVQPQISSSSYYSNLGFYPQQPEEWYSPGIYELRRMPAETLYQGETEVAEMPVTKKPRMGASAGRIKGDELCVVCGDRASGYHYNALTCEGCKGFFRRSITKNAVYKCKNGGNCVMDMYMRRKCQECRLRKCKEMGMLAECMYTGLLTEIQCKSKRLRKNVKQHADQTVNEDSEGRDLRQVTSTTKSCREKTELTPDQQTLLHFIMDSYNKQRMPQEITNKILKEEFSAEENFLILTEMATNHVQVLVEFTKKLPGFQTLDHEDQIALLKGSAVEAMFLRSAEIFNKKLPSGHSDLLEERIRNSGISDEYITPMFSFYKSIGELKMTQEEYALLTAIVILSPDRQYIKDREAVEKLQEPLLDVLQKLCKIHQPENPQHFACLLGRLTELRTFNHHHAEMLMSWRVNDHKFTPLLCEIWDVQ
# Sequence (P19793 1-462 partner): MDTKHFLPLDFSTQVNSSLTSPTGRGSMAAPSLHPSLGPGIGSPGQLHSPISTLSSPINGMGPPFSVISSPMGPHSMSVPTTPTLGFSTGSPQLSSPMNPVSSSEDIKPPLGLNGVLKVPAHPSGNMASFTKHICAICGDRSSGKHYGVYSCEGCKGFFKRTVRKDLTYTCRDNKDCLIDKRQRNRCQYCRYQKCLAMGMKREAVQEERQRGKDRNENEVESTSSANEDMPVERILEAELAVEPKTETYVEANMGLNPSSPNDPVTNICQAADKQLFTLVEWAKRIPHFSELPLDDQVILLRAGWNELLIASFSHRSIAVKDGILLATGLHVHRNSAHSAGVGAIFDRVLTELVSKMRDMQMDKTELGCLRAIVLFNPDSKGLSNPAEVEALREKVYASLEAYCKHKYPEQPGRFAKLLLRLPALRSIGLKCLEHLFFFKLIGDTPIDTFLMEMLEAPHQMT
# assay.explanation: In Vitro FXR Assay (TK): TK-ECRE-luc reporter in transfected CV-1 cells
# condition.label: 18 hrs incubation, luminescence
Each entry below lists one item and its recorded EC50 value.

{"compound": "COc1ccc([C@H]2CC[C@H](CN(c3cccc(-c4coc(C5CC5)n4)c3)C(=O)[C@H]3CC[C@H](C(C)(C)O)CC3)CC2)nc1C", "quantity": "EC50", "measured": "≤ 50 nM"}

I'd like to know its EC50. The compound in question is "COc1ccc(C23CCC(CN(c4cc(-c5cnn(C(C)C)c5)ccn4)C(=O)[C@H]4CC[C@H](OC(=O)N5CC(OC(C)C)C5)CC4)(CC2)CC3)cc1C"
≤ 50 nM

Subsequent entry: "COc1ccc(C23CCC(CN(c4cc(-c5cnn(C(C)C)c5)ccn4)C(=O)[C@H]4CC[C@H](OC(=O)N5CCN(C)CC5)CC4)(CC2)CC3)cc1C"
≤ 50 nM

Now consider "COc1ccc(C23CCC(CN(c4cccc(-n5cnc(C6CC6)c5)c4)C(=O)[C@H]4CC[C@H](OC(=O)N5CC(O)C5)CC4)(CC2)CC3)cc1C" .
≤ 50 nM

Also check "COc1ccc(C23CCC(CN(c4cc(-c5cnc(C(C)C)s5)ccn4)C(=O)[C@H]4CC[C@H](OC(=O)NCCCO)CC4)(CC2)CC3)cc1C"
≤ 50 nM

Try this compound too: "COc1ccc(C23CCC(CN(c4cc(-c5cnc(C6CC6)s5)ccn4)C(=O)[C@H]4CC[C@H](OC(=O)N5CC(CO)C5)CC4)(CC2)CC3)cc1C"
≤ 50 nM

Would you mind doing "COc1ccc([C@H]2CC[C@H](CN(c3cc(-c4cnc(C(C)C)o4)ccn3)C(=O)[C@H]3CC[C@H](OC(=O)N4CC(O)C4)CC3)CC2)cc1C" as well?
≤ 50 nM

What do you have for "CC(C)n1cc(-c2ccnc(N(CC34CCC(C5CCC(C)(C)CC5)(CC3)CC4)C(=O)[C@H]3CC[C@H](OC(=O)N4CC(O)C4)CC3)c2)cn1" ?
50 to 1000 nM

Then "COc1ccc(C23CCC(CN(c4cc(-c5cnc(C6CC6)s5)ccn4)C(=O)[C@H]4CC[C@H](OC(=O)N5CC(O)C5)CC4)(CC2)CC3)cc1C" ?
≤ 50 nM

Also "COc1ccc(C23CCC(CN(c4cc(-c5cnc(C(C)C)s5)ccn4)C(=O)[C@H]4CC[C@H](OC(=O)N5CC(O)C5)CC4)(CC2)CC3)cc1C" ?
≤ 50 nM

Could you do the same for "COCC1CN(C(=O)O[C@H]2CC[C@H](C(=O)N(CC34CCC(c5ccc(OC)c(C)c5)(CC3)CC4)c3cc(-c4cnn(C(C)C)c4)ccn3)CC2)C1" , please?
≤ 50 nM

Entry "COCCOC(=O)N[C@H]1CC[C@H](C(=O)N(C[C@H]2CC[C@H](c3ccc(OC)c(C)c3)CC2)c2cccc(-c3cnn(C(C)C)c3)c2)CC1" please
≤ 50 nM

Also, "COc1ncc([C@H]2CC[C@H](CN(c3cc(-c4coc(C5CC5)n4)ccn3)C(=O)[C@H]3CC[C@H](OC(=O)N4CC(N(C)C)C4)CC3)CC2)cc1Cl" please.
≤ 50 nM

Follow-up item: "COc1ccc([C@H]2CC[C@H](CN(c3cc(-c4cnn(C(C)C)c4)ccn3)C(=O)[C@H]3CC[C@H](OC(=O)N4CC(CO)C4)CC3)CC2)cc1C"
≤ 50 nM
